Give CC50 at 48 h for every item shown.
Test: Cytotoxicity against human MT2 cells infected with wild-type HIV1 NL4-3 measured 48 hrs by MTT assay
Type: cell-based

Entry Cc1ccnc2c1NC(=O)c1cccnc1N2C1CC1 [NEVIRAPINE] — recorded CC50 at 48 h = > 100 µM

Entry N#Cc1cc2c(Oc3ccc(F)cc3OCCn3ccc(=O)[nH]c3=O)cc(F)cn2c1 — recorded CC50 at 48 h = 90 µM

Entry Cc1cc(/C=C/C#N)cc(C)c1Nc1ccnc(Nc2ccc(C#N)cc2)n1 [RILPIVIRINE] — recorded CC50 at 48 h = 8 µM

----------
Target: Human immunodeficiency virus type 1 reverse transcriptase (Human immunodeficiency virus 1, UniProt Q72547, Y181C)
Experiment: Inhibition of recombinant HIV1 reverse transcriptase p66/p51 Y181C mutant expressed in Escherichia coli BL21 (DE3) pLysS cells preincubated followed by primer/template addition and measured after 30 mins by picogreen dye-based fluorescence assay
Observation Type: pIC50
Scale for pIC50: -log10 of concentration given in mol/L; no unit attached.

Entry N#Cc1cc2c(Oc3ccc(F)cc3OCCn3ccc(=O)[nH]c3=O)cc(F)cn2c1 — recorded pIC50 = 8.26

----------
Molecular target: Human immunodeficiency virus type 1 reverse transcriptase (Human immunodeficiency virus 1, UniProt Q72547)
Assay: Inhibition of recombinant HIV1 reverse transcriptase p66/p51 expressed in Escherichia coli BL21 (DE3) pLysS cells preincubated followed by primer/template addition and measured after 30 mins by picogreen dye-based fluorescence assay
Observation Type: pIC50
Scale for pIC50: -log10 of concentration given in mol/L; no unit attached.

Entry N#Cc1cc2c(Oc3ccc(F)cc3OCCn3ccc(=O)[nH]c3=O)cc(F)cn2c1 — recorded pIC50 = 8.35

----------
Test: Solubility of the compound in water at pH 7
Type: physicochemical
Observation Type: solubility (µg/mL)
Report the value in µg/mL with no unit label.

Entry N#Cc1cc2c(Oc3ccc(F)cc3OCCn3ccc(=O)[nH]c3=O)cc(F)cn2c1 — recorded solubility = 43.8

----------
Assay: Cytotoxicity against human MT2 cells infected with HIV1 NL4-3 harboring Y181C mutant measured 48 hrs by MTT assay
Type: cell-based
Observation Type: CC50 at 48 h (µM)
Report the value in µM with no unit label.

Entry N#Cc1cc2c(Oc3ccc(F)cc3OCCn3ccc(=O)[nH]c3=O)cc(F)cn2c1 — recorded CC50 at 48 h = 55

The reported measurements were obtained from ChEMBL document CHEMBL4387780.
